system_under_test: rat collagen (acid soluble, type I, rat tail, Upstate 08-115) (rat) (UniProt P02454)
Sequence (P02454 152-1207, chain 1 of 2): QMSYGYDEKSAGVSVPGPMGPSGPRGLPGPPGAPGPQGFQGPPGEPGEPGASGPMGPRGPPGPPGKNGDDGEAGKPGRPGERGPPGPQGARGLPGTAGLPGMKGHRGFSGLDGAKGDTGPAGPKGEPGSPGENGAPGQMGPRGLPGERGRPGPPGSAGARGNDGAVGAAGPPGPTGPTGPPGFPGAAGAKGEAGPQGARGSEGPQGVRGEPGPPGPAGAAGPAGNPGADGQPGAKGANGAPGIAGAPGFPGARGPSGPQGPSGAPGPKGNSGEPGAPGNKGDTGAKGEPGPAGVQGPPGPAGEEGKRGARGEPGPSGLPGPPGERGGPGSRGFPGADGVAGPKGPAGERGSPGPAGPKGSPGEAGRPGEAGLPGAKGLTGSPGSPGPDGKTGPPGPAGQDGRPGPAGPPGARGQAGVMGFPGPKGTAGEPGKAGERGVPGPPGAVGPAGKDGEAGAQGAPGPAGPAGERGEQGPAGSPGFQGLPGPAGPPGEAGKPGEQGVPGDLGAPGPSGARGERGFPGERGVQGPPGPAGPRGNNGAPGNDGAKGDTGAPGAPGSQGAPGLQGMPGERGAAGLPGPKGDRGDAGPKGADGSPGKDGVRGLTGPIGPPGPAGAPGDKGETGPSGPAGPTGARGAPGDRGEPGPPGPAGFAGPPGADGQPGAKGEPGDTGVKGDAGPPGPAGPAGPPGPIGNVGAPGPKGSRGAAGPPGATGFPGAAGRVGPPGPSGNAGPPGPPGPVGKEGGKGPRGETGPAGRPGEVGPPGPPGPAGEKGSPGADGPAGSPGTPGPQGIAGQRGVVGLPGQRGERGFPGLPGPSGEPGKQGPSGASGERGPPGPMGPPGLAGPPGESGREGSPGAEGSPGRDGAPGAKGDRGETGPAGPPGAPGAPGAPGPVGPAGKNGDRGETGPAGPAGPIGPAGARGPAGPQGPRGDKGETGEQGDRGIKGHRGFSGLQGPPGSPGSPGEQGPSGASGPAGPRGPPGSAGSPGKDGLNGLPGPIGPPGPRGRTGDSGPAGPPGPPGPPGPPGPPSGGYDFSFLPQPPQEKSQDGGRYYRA
Sequence (P02466 86-1125, chain 2 of 2, further chain): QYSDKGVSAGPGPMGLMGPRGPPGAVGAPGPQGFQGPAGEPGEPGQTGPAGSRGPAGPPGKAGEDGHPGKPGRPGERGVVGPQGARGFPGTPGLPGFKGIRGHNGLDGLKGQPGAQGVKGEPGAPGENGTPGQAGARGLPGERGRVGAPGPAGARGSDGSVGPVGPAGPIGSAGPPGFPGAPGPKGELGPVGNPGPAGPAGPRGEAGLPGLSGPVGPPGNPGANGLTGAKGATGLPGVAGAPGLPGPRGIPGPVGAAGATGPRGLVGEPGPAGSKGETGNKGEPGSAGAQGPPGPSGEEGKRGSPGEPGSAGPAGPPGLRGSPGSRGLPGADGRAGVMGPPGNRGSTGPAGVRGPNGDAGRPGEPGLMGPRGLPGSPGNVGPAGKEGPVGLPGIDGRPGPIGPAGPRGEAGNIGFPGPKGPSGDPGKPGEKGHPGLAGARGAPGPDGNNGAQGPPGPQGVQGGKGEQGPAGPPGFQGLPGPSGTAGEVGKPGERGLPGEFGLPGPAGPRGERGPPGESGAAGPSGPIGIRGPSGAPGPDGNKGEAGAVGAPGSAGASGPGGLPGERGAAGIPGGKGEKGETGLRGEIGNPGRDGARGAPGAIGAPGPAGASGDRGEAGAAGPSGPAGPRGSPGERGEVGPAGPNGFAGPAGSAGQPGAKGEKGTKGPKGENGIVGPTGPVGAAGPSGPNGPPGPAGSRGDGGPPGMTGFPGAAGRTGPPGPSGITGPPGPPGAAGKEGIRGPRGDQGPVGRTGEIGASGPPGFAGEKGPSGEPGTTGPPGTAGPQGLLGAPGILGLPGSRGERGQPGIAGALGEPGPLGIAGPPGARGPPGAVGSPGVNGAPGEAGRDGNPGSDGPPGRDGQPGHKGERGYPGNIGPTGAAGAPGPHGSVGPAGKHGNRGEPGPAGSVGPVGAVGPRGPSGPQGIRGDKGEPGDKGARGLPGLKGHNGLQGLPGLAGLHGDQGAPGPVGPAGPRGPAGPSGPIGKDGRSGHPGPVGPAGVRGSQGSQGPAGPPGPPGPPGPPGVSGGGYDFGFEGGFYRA
assay_procedure: dried collagen assay, 5 uM each
Bridge positions count the residues as written; N and C are the ends. Ends that are not written are not given here. GdT = GdDTPA-thiourea
measured_attribute: Rat binding (%)

(I) GdT-GQWHCYTKFPHHYCLYGK (disulfide 5-14 (inferred); not fully specified (residues 8, 18, C-terminus)) [Compound ID 993]
(II) DWTCSGDEYTWYCNYE [Compound ID 842]
(III) GQWHCTTRFAHHYCLYG [Compound ID 938]
Ask: Place the items in sequence of falling Rat binding. Please, when replying, give the labels in the order that was requested.
Reply: I, III, II
(I: 70%, III: 13%, II: 9%)

(1) GKWHCTTYFPHYYCLYG [Compound ID 947]
(2) GKWHCYTYFPYHYCLYG [Compound ID 964]
(3) GKWHCTTYFPTHYCLYG [Compound ID 962]
Ask: Place the items in sequence of falling Rat binding. Please, when replying, give the labels in the order that was requested.
Reply: 2, 1, 3
(2: 86%, 1: 57%, 3: 10%)

Source: patent US20080058636A1
